System: 616215-338-R-J1-PDC complex spheroid viability;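 note: spheroids exposed to compounds for one week before readout; percent viability relative to DMSO vehicle wells taken as 100%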
Assay: Anticancer human tumor 616215-338-R-J1-PDC patient-derived colon adenocarcinoma cell line growth inhibition [POLQ]
Conditions: second compound 0.0316 µM; first compound 0.316 µM; hits give low values
READOUT_NAME: viability, T/C (%)
Supply the numeric figure in %, leaving out any unit text.

Measured on 616215-338-R-J1-PDC complex spheroid viability, CCc1cc2c(N3CCc4c(cc(Cn5ccnc5)cc4-c4cn(C)nc4C(F)(F)F)C3=O)ccnc2c(OC)n1 + COC1C(OC(N)=O)C(O)C(Oc2ccc3c(O)c(NC(=O)c4ccc(O)c(CC=C(C)C)c4)c(=O)oc3c2C)OC1(C)C has a documented viability, T/C of 111

// viability, T/C (616215-338-R-J1-PDC complex spheroid viability) for Nc1ccn(C2OC(CO)C(O)C2(F)F)c(=O)n1 (stereo not given) + COC1C(OC(N)=O)C(O)C(Oc2ccc3c(O)c(NC(=O)c4ccc(O)c(CC=C(C)C)c4)c(=O)oc3c2C)OC1(C)C = 24

Measured on 616215-338-R-J1-PDC complex spheroid viability, CCc1cc2c(N3CCc4c(cc(Cn5ccnc5)cc4-c4cn(C)nc4C(F)(F)F)C3=O)ccnc2c(OC)n1 + Nc1ccc(C#CCN(C(=O)Cc2ncc(C(F)(F)F)cc2C(F)(F)F)c2ccc(F)cc2)nn1 has a documented viability, T/C of 95.6

Entry COc1cc(C2c3cc4c(cc3C(OC3OC5COC(C)OC5C(O)C3O)C3COC(=O)C23)OCO4)cc(OC)c1O (stereo not given) + COC1C(OC(N)=O)C(O)C(Oc2ccc3c(O)c(NC(=O)c4ccc(O)c(CC=C(C)C)c4)c(=O)oc3c2C)OC1(C)C ; assay system 616215-338-R-J1-PDC complex spheroid viability; viability, T/C recorded at 95.3

Query O=c1[nH]cc(F)c(=O)[nH]1 + Nc1ccc(C#CCN(C(=O)Cc2ncc(C(F)(F)F)cc2C(F)(F)F)c2ccc(F)cc2)nn1 on 616215-338-R-J1-PDC complex spheroid viability; viability, T/C returned: 56.6
